# System: murine neural precursor cells (neurosphere cultures)
# Assay Method Text: HTS of LOPAC library against secondary neurosphere cultures, MTT proliferation assay at 3 μM, day 7 (z score, P value)
# Assay type: cell-based, mouse
# Condition Notes: 168 h, 3 µM
Structures can show the parent of a compound that is named as a salt.
Metric Name: Z Score

Result for NC(=O)c1ccccc1C(=O)N[C@@H](CCC(=O)O)C(=O)O.[Na].[Na].[Na] [Phthalamoyl-L-glutamic acid trisodium] , tested on murine neural precursor cells (neurosphere cultures), Z Score: 0.2509

Result for O=C(O)C1CCNCC1 , tested on murine neural precursor cells (neurosphere cultures), Z Score: −0.4569

Result for CN(C)C(=O)N=NC(=O)N(C)C [N,N,N′,N′-Tetramethylazodicarboxamide] , tested on murine neural precursor cells (neurosphere cultures), Z Score: −0.6393

Result for Clc1ccc(C(c2ccc(Cl)cc2)n2cc[n+](CC(OCc3ccc(Cl)cc3Cl)c3ccc(Cl)cc3Cl)c2)cc1 (centres unmarked) [Calmidazolium chloride] , tested on murine neural precursor cells (neurosphere cultures), Z Score: −8.582

Result for CCN(CC)CCOC(=O)C1(C2CCCCC2)CCCCC1 [Dicyclomine hydrochloride] , tested on murine neural precursor cells (neurosphere cultures), Z Score: 1.414

Result for Cc1cccc(C#Cc2ccccc2)n1.Cl , tested on murine neural precursor cells (neurosphere cultures), Z Score: 0.09366

Result for FC(F)(F)c1ccccc1-n1ccnc1 [1-[2-(Trifluoromethyl)phenyl]imidazole] , tested on murine neural precursor cells (neurosphere cultures), Z Score: −0.1576

Result for CCCc1c(-c2ccc(O)cc2)nn(-c2ccc(O)cc2)c1-c1ccc(O)cc1 , tested on murine neural precursor cells (neurosphere cultures), Z Score: 0.7717

Result for CSc1ccc2c(c1)N(CCC1CCCCN1C)c1ccccc1S2 (centres unmarked) [Thioridazine hydrochloride] , tested on murine neural precursor cells (neurosphere cultures), Z Score: 0.2356

Result for Nc1nc(Cl)nc2c1ncn2[C@@H]1O[C@H](CO)[C@@H](O)[C@H]1O , tested on murine neural precursor cells (neurosphere cultures), Z Score: −0.396

Result for O=C(c1ccc(F)cc1)C1CCN(CCn2c(=O)[nH]c3ccccc3c2=O)CC1 [Ketanserin tartrate] , tested on murine neural precursor cells (neurosphere cultures), Z Score: −3.325

Result for N[C@@H](CCC(=O)N[C@@H](CSN=O)C(=O)NCC(=O)O)C(=O)O , tested on murine neural precursor cells (neurosphere cultures), Z Score: 0.6978
